# MIC per entry
- Test system: Candida albicans
- procedure details: Antifungal activity against Candida albicans ATCC 7754 after 72 hrs by agar dilution method
- Type: functional
- run parameters: ATCC 7754, 72 h
Report only the number, with the unit µM understood.

Illustrative cases are given below, each with its answer.
[[record]]
molecule = "CC(=O)OC[C@H]1O[C@@H](n2cc(COc3ccc4c(c3)OC(N)=C(C#N)C4c3cccc([N+](=O)[O-])c3)nn2)[C@H](OC(C)=O)[C@@H](OC(C)=O)[C@@H]1OC(C)=O (stereo partly drawn)"
measurement_target = "Candida albicans"
meas_value = 200

[[record]]
molecule = "COc1ccc(C2C(C#N)=C(N)Oc3cc(OCc4cn([C@@H]5O[C@H](COC(C)=O)[C@@H](OC(C)=O)[C@H](OC(C)=O)[C@H]5OC(C)=O)nn4)ccc32)cc1OC (stereo partly drawn)"
measurement_target = "Candida albicans"
meas_value = 6.25


Now take the following molecule into account.
I have this molecule here, COc1ccc(C2C(C#N)=C(N)Oc3cc(OCc4cn([C@@H]5O[C@H](COC(C)=O)[C@@H](OC(C)=O)[C@H](OC(C)=O)[C@H]5OC(C)=O)nn4)ccc32)c(OC)c1 (stereo partly drawn) , and I need its recorded MIC.
12.5
